Values compiled from PubChem BioAssay AID1996.

# test.settings: buffer; pH 7.4; 200.0 µM
experimental.readout: log10(solubility kinetic) (log10 of the value in µg/mL)
# values: log10(solubility kinetic), units µg/mL

Task item: Fill blank: measured log10(solubility kinetic) of the compound CC1CCCCC1NC(=O)COC(=O)c1ccc2c(=O)n3c(nc2c1)CCC3 (stereo not given) is ____.
Reply: 1.35

Task item: Fill blank: measured log10(solubility kinetic) of the compound Cc1nc2ccccc2c(=O)n1-c1ccc(F)cc1F is ____.
Reply: 1.57

Task item: Fill blank: measured log10(solubility kinetic) of the compound COc1cccc(OC)c1C(=O)Nc1sc2c(c1C(N)=O)CCCC2 is ____.
Reply: 1.40

Task item: Fill blank: measured log10(solubility kinetic) of the compound CC(C)N(C(=S)Nc1cccnc1)c1ccccc1 is ____.
Reply: 1.52

Task item: Fill blank: measured log10(solubility kinetic) of the compound CC(=O)c1ccc(N=C2NC(=O)C(CO)(CO)S2)cc1 is ____.
Reply: 1.64

Task item: Fill blank: measured log10(solubility kinetic) of the compound COC(=O)COc1ccc(NC(=O)c2ccco2)cc1 is ____.
Reply: 1.59

Task item: Fill blank: measured log10(solubility kinetic) of the compound Cc1occc1C(=O)NCc1nc(-c2ccc(Cl)cc2)no1 is ____.
Reply: 1.58

Task item: Fill blank: measured log10(solubility kinetic) of the compound COc1ccc(NC(=O)Nc2ccccc2SC)cc1OC is ____.
Reply: -0.22

Task item: Fill blank: measured log10(solubility kinetic) of the compound O=C(NCCc1ccc(F)cc1)NC12CC3CC(CC(C3)C1)C2 is ____.
Reply: 0.81

Task item: Fill blank: measured log10(solubility kinetic) of the compound CC(=O)Nc1ccc(NC(=O)CC(c2ccccc2)c2ccccc2)cc1 is ____.
Reply: 0.32

Task item: Fill blank: measured log10(solubility kinetic) of the compound O=C(CN1CCN(Cc2cccc(F)c2)CC1)NCc1ccccc1 is ____.
Reply: 1.63

Task item: Fill blank: measured log10(solubility kinetic) of the compound O=C(c1cnc2ccccc2n1)N1CCN(c2ccc(C(F)(F)F)cn2)CC1 is ____.
Reply: 0.00

Task item: Fill blank: measured log10(solubility kinetic) of the compound COc1ccccc1N1CCN(C(=S)Nc2ccccc2)CC1 is ____.
Reply: 1.59

Task item: Fill blank: measured log10(solubility kinetic) of the compound C=C(C)CN(CC)C(=O)CC1C(=O)NCCN1CC(C)(C)C (stereo not given) is ____.
Reply: 1.60

Task item: Fill blank: measured log10(solubility kinetic) of the compound O=C(Nc1cccc(F)c1)Nc1ccc2c(c1)OCO2 is ____.
Reply: 0.64

Task item: Fill blank: measured log10(solubility kinetic) of the compound CC(C)(C)NC(=O)COC(=O)C1c2ccccc2Oc2ccccc21 is ____.
Reply: 1.69

Task item: Fill blank: measured log10(solubility kinetic) of the compound COc1cccc(CSc2nc(N)cc(N)n2)c1 is ____.
Reply: 1.46

Task item: Fill blank: measured log10(solubility kinetic) of the compound COc1cccc(CN(C)C(=O)c2ccc(N3CCCC3)c([N+](=O)[O-])c2)c1 is ____.
Reply: 1.34

Task item: Fill blank: measured log10(solubility kinetic) of the compound CCc1ccc(NC(=O)CCCN2C(=S)NC(C)(C)CC2C)cc1 (stereo not given) is ____.
Reply: 1.59

Task item: Fill blank: measured log10(solubility kinetic) of the compound Cc1ccccc1CC(=O)Nc1ccon1 is ____.
Reply: 1.48

Task item: Fill blank: measured log10(solubility kinetic) of the compound O=C1Nc2ccccc2/C1=C/c1nc2ccccc2c(=O)n1-c1ccc(O)cc1 is ____.
Reply: 0.28

Task item: Fill blank: measured log10(solubility kinetic) of the compound CC1=C(C(=O)OC2CCCC(C)C2)C(c2ccccc2)NC(=O)N1 (stereo not given) is ____.
Reply: 0.63

Task item: Fill blank: measured log10(solubility kinetic) of the compound Cc1ccc(OCCn2cnc(Cl)c2Cl)cc1 is ____.
Reply: 1.50

Task item: Fill blank: measured log10(solubility kinetic) of the compound Cc1cccnc1NC(=O)Nc1ccc(Cl)cc1 is ____.
Reply: -0.15

Task item: Fill blank: measured log10(solubility kinetic) of the compound CC(C)c1ccc(NC(=O)C2CC3CCC2C3)cc1 (stereo not given) is ____.
Reply: 0.32

Task item: Fill blank: measured log10(solubility kinetic) of the compound CC(=O)c1sc(NC(=O)c2ccc3c(c2)OCO3)nc1C is ____.
Reply: -0.05

Task item: Fill blank: measured log10(solubility kinetic) of the compound Nc1nc(Cl)cc(Oc2ccc(Cl)cc2)n1 is ____.
Reply: 0.00

Task item: Fill blank: measured log10(solubility kinetic) of the compound Cc1cccc(-n2c(C)nc3ccc(Cl)cc3c2=O)c1 is ____.
Reply: 1.34

Task item: Fill blank: measured log10(solubility kinetic) of the compound CC(Sc1ncccn1)C(=O)Nc1ccc2c(c1)OCO2 (stereo not given) is ____.
Reply: 1.65

Task item: Fill blank: measured log10(solubility kinetic) of the compound Cc1ccccc1N1C(=O)c2cccc3cccc(c23)C1=O is ____.
Reply: 0.40
